// data source = paper PMC12563520

target: L858R/T790M EGFR (Homo sapiens, UniProt P00533, L858R/T790M); experiment: ADP-Glo kinase assay, double-mutant EGFR; conditions: mean ± SEM (n = 3), read-out: IC50 kinase inhibition, L858R/T790M EGFR
Sequence (P00533 25-1210 T790M/L858R): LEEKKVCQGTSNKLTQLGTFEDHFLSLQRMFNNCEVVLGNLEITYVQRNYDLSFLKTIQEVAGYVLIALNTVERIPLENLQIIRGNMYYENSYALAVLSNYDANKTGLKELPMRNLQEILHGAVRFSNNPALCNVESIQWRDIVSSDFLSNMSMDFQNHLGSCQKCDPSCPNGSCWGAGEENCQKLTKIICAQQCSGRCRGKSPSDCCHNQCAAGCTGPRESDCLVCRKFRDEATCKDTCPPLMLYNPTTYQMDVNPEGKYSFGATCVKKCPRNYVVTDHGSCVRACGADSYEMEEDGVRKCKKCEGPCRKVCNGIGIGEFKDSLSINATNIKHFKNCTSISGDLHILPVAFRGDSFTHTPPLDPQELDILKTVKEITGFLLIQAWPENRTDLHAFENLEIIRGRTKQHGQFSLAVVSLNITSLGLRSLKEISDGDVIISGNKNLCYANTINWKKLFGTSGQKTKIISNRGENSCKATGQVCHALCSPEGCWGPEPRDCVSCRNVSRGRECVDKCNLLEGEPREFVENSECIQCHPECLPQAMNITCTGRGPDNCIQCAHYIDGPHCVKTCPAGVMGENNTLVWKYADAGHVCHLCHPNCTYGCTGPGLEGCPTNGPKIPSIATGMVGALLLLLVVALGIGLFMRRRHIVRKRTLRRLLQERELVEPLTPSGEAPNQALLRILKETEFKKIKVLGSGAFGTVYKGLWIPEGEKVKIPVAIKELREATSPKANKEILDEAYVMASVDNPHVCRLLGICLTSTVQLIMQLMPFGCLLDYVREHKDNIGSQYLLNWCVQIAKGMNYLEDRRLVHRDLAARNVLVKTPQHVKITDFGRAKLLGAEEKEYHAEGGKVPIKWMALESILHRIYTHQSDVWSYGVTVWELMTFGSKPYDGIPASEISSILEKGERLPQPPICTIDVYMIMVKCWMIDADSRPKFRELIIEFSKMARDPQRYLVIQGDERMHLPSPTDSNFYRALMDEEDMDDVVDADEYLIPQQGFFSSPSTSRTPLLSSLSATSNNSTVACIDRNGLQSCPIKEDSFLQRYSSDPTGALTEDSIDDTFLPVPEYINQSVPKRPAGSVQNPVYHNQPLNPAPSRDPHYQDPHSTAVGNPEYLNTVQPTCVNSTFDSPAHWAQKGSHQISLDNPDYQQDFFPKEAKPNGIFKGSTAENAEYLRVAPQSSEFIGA
parameter: pIC50
pIC50 here is simply -log10 of the concentration when that concentration is written in mol/L.

In: Look up pIC50: "C[C@H]1[C@H](C)CC[C@]2(C(=O)O)CC[C@]3(C)C(=CC[C@@H]4[C@@]5(C)C[C@@H](O)[C@H](O)[C@@](C)(CO)[C@@H]5CC[C@]43C)[C@H]12"
Out: 9.46

---

system: H1975 cells; experiment: MTT cell viability assay, H1975; format: cell-based; details: Homo sapiens, NCI-H1975; H1975, MTT, 72 h, mean ± SEM (n = 3); read-out: IC50 cell viability
parameter: pIC50
Lab note: report pIC50 as minus log10 of the concentration in molar units, number only.

In: Given C[C@H]1[C@H](C)CC[C@]2(C(=O)O)CC[C@]3(C)C(=CC[C@@H]4[C@@]5(C)C[C@@H](O)[C@H](O)[C@@](C)(CO)[C@@H]5CC[C@]43C)[C@H]12 [Asiatic acid, asiatic acid] , state its recorded pIC50.
Out: 4.44

---

tested on: H1975 cells; test: MTT cell viability assay, H1975; format: cell-based; conditions: Homo sapiens, NCI-H1975; Table S1, n = 3; read-out: IC50 (μM) Mean, H1975 cell viability
parameter: IC50 (µM)
Provide only the numeric value, understood in µM.

In: What value of measured IC50 is listed for C=CC(=O)Nc1cc(Nc2nccc(-c3cn(C)c4ccccc34)n2)c(OC)cc1N(C)CCN(C)C [Osimertinib] ?
Out: 4.14

---

target: fibroblast growth factor receptor (FGFR); test: FGFR kinase inhibition (selectivity); settings: Figure S8
parameter: pIC50
Reminder that pIC50 means the negative base-10 logarithm of the concentration expressed in mol/L.

In: So what's the measured pIC50 for this one? C[C@H]1[C@H](C)CC[C@]2(C(=O)O)CC[C@]3(C)C(=CC[C@@H]4[C@@]5(C)C[C@@H](O)[C@H](O)[C@@](C)(CO)[C@@H]5CC[C@]43C)[C@H]12 [Asiatic acid, asiatic acid]
Out: 9.33
